- testSummary: Toxicity liver stage against HepG2, at 10uM
- Assay type: cell-based
- Set-up: test concentration 10 uM, cell line HepG2-A16-CD81EGFP
- runConditions: human, HepG2-A16-CD81EGFP cells; read-out: INHIBITION
measurementName: cytotoxicity at 10 µM (%)

compound	measurementName	number
COc1ccc(S(=O)(=O)NCCCc2ccc(N(C)C)cc2)cc1Cl	cytotoxicity at 10 µM	-0.399
O=C1OCCN1CC(=O)N1C[C@@H]2CC[C@H]1CN(Cc1cscn1)C2	cytotoxicity at 10 µM	-5.41
C=C(C)COc1cccc(C(=O)N(C)C(C)c2c(C)n[nH]c2C)c1 (stereo not drawn)	cytotoxicity at 10 µM	2.8
COCCn1/c(=N/C(=O)C(C)C)sc2cc(Cl)ccc21	cytotoxicity at 10 µM	-5.26
COc1ccc(CN(C)C(=O)CN2CC(n3cc(C)cn3)C2)cc1F	cytotoxicity at 10 µM	1.59
CC(C)CCC1=NC2(CCN(C(=O)CN3CCCC3=O)CC2)C(=O)N1	cytotoxicity at 10 µM	-3.07
c1ccc(-c2nnc3n2CCN(c2nc(C4CC4)ns2)C3)cc1	cytotoxicity at 10 µM	0.38
Cc1cn2c(n1)CCC(NC(=O)CCC(F)(F)F)C2 (stereo not drawn)	cytotoxicity at 10 µM	-9.12
CC(C)NC(=O)CSc1nc2c(cnn2CCO)c(=O)[nH]1	cytotoxicity at 10 µM	-8.72
Cc1cnc(C(=O)N2C[C@@H]3CC[C@H]2CN(Cc2cscn2)C3)[nH]1	cytotoxicity at 10 µM	4.16
O=C(NC1CCCCC1)C1CCCN(C(=O)Nc2ccccn2)C1 (stereo not drawn)	cytotoxicity at 10 µM	3.57
Cc1cc(C)n(CC(C)Nc2nc(-c3ccncc3)nc3c2CNC3)n1 (stereo not drawn)	cytotoxicity at 10 µM	-1.75
CCCN(Cc1cccnc1)C(=O)C1CCNC1 (stereo not drawn)	cytotoxicity at 10 µM	8.97
COCCN1CCC(c2nc3ccc(NC4CCC4)cn3n2)CC1	cytotoxicity at 10 µM	-119
CCc1ccc(C(=O)N2CC[C@](C)(O)C(C)(C)C2)[nH]1	cytotoxicity at 10 µM	2.43
Cc1occc1C(=O)N1CCOCC2(CCN(C3CCOCC3)C2)C1 (stereo not drawn)	cytotoxicity at 10 µM	1.47
COc1ccc(C2=CCN(C(=O)C3CCCN(C(N)=O)C3)CC2)cc1 (stereo not drawn)	cytotoxicity at 10 µM	-10.1
CC(C)C[C@@H](C(N)=O)n1cc(-c2cncnc2)nn1	cytotoxicity at 10 µM	3.28
CCOCC(=O)N1C[C@H]2CC[C@@H](C1)N(Cc1ccccn1)C2=O	cytotoxicity at 10 µM	10.9
Cc1cc(C)n(CC2CCCN2C(=O)c2cccnc2N(C)C)n1 (stereo not drawn)	cytotoxicity at 10 µM	-3.56
O=c1n(CC2COCCO2)nc(CC2CCNCC2)n1-c1ccccc1 (stereo not drawn)	cytotoxicity at 10 µM	-3.41
Cc1ccc2nc(CN3CCCCC3CCn3cccn3)cn2c1 (stereo not drawn)	cytotoxicity at 10 µM	7.31
Cc1cnn(CC2CCCN2C(=O)c2ccc(Cl)cc2F)c1 (stereo not drawn)	cytotoxicity at 10 µM	-19
CC1(C)CCC(C(=O)N2CCCO2)c2ccccc21 (stereo not drawn)	cytotoxicity at 10 µM	-0.636
CCCn1nc(C)c(C(=O)N[C@@H]2CC[C@@H](N3CCCC3)[C@@H]2O)c1C	cytotoxicity at 10 µM	-4.79
CC(C(=O)NCc1ccc(N2CCCCCC2)nc1)n1cncn1 (stereo not drawn)	cytotoxicity at 10 µM	-11.2
CC(=O)N1CCC(c2cnc(-c3c(C)nn(C)c3C)cn2)CC1	cytotoxicity at 10 µM	-33.6
Cc1cccc(Cc2nc3c([nH]2)CCCNC3=O)c1	cytotoxicity at 10 µM	-12.9
O=C(CCSc1ccccc1F)NS(=O)(=O)c1ccc2c(c1)OCCO2	cytotoxicity at 10 µM	-0.841
COc1cc2c(cc1-c1nc3c(cnn3C(C)C)[nH]1)OCO2	cytotoxicity at 10 µM	-6.85
CN(Cc1cccnc1)C(CO)c1cccc(Br)c1 (stereo not drawn)	cytotoxicity at 10 µM	-5.37
Cc1noc(C)c1CC(=O)N1CCCN(Cc2cscn2)CC1	cytotoxicity at 10 µM	2.45
CNC(=O)CN1CCC(NC(=O)N(C)Cc2c(C)noc2C)CC1	cytotoxicity at 10 µM	2.1
CN(C)CCC1CN(C(=O)c2cccc3c2OCC3)CCO1 (stereo not drawn)	cytotoxicity at 10 µM	2.13
O=C(Cc1cccs1)N1CCC2(CCCN(CC3CCOCC3)C2)C1 (stereo not drawn)	cytotoxicity at 10 µM	-144
CCn1ccc(NC(=O)CCc2c(C)noc2C)n1	cytotoxicity at 10 µM	7.16
COc1ccc(CN2CC[C@H]3[C@H]2CCN3C(=O)c2cnn(C)c2)cc1	cytotoxicity at 10 µM	7.9
CCn1ccc(-c2cc(C(=O)O)n3nc(C(F)(F)F)c(Br)c3n2)n1	cytotoxicity at 10 µM	-1.47
O=C(Nc1ccnn1Cc1ccc(Cl)cc1)C1CCS(=O)(=O)C1 (stereo not drawn)	cytotoxicity at 10 µM	10.9
Cc1ccc(C(=O)NS(=O)(=O)c2ccccc2Cl)c(=O)[nH]1	cytotoxicity at 10 µM	-8.81
O=C(c1cccnc1)N1CCCC(c2ncncc2-c2ccncc2)C1 (stereo not drawn)	cytotoxicity at 10 µM	-23.4
Cc1cnn(CC2CCCCN2CC(=O)Nc2nc(C)cs2)c1 (stereo not drawn)	cytotoxicity at 10 µM	0.109
CCN(CC)CCCNc1nccc(-c2cn(C)nc2C)n1	cytotoxicity at 10 µM	-2.92

====

- testSummary: Toxicity liver stage against HepG2, at 10uM
- Type: cell-based
- Parameters: test concentration 10 uM, cell line HepG2-A16-CD81EGFP
- runConditions: human, HepG2-A16-CD81EGFP cells; read-out: INHIBITION
Reported cytotoxicity at 10 µM values for the following compounds.
measurementName: cytotoxicity at 10 µM

compound	result
O=C(Cn1ccc2ccccc21)NC[C@@H]1CCCN2CCCC[C@H]12	-4.16%
CC(Cn1ccnc1)NC(=O)N1CCN(Cc2cccs2)CC1 (stereo unspecified)	-5.36%
CCSc1ccc(C(=O)N2CCCC2C(=O)N2CCOCC2)cn1 (stereo unspecified)	-6.98%
CC(C)S(=O)(=O)CC(=O)N1CCCC(n2ccnc2)C1 (stereo unspecified)	10.2%
COc1cccc(C)c1C(=O)N1C[C@@H](CN(C)C)[C@@H](CO)C1	-10.4%
CN1CC(=O)N(c2cccnc2)CC12CCN(C(=O)c1cccn1C)C2 (stereo unspecified)	1.14%
C[C@@H]1CN(Cc2ccccn2)C[C@]12CCN(Cc1cccnc1)C2=O	-4.54%
OCCc1cc(CC2(NCc3ccncc3)COC2)no1	-3.56%
COCCN1C[C@@H]2CN(Cc3ccoc3)CCC[C@]2(C(=O)O)C1	-139%
CN(C)C(=O)c1ccc2c(c1)nc(N1CC[C@H](O)C1)n2C	-18.8%
O=C(c1ccco1)N1CCOCC2(C1)CN(c1ccccn1)C(=O)CO2 (stereo unspecified)	3.16%
CN1CC(Nc2ccc(Br)cc2C#N)CCC1=O (stereo unspecified)	8.25%
CNC(=O)[C@H]1C[C@@H]2CN(S(=O)(=O)c3ccccc3)C[C@@H]2N1C(C)=O	-10.4%
CCc1nnc2n1CCN(C(=O)CN(C)C1CC1)C2	-1.28%
COCCn1ccnc1-c1cc(CN2CCCCC2)cs1	-151%
Cc1ccc(Cl)cc1NC(=O)C1CC(=O)N(Cc2ccccn2)C1 (stereo unspecified)	4.67%
CCN(CC)c1ncc2c(c1C(=O)O)CCN(C1CCOC1)C2 (stereo unspecified)	15.7%
COCCNC(=O)C1(c2ccc(C)c(OC)c2)CCCC1	-3.21%
Cn1nnc2c1C(COCC1CC1)CN(Cc1ccoc1)C2 (stereo unspecified)	2.49%
CCc1cc(N(C)Cc2ncc[nH]2)nc(N2CCOCC2)n1	-1.61%
O=C1CC[C@H]2CN(c3ncccc3F)CC[C@H]2N1CCc1ccccc1	4.52%

====

- testSummary: Toxicity liver stage against HepG2, at 10uM
- Type: cell-based
- Parameters: test concentration 10 uM, cell line HepG2-A16-CD81EGFP
- runConditions: human, HepG2-A16-CD81EGFP cells; read-out: INHIBITION

molecule	cytotoxicity at 10 µM [%]
CS(=O)(=O)c1nccn1Cc1ccc(Cl)cc1	-10.4
CCCC(=O)NC1CCCN(C(=O)c2ccc(C)nc2)C1 (stereo not drawn)	17.5
Cc1sc2c(C3CCCNC3)nc(Nc3cccc(F)c3)n2c1C (stereo not drawn)	1.24
Cc1ccc(-n2ccnc2)c(C(=O)NCCCN(C)C)c1	-152
O=C(C1=COCCO1)N1CC(Oc2nc3c(Cl)cccc3s2)C1	38.2
CCc1nc(CNc2ccc(C(=O)NCc3ccco3)cc2C)no1	2.4
Cc1nc(CN2CCCN(C(=O)C3(C#N)CCCCC3)CC2)cs1	-9.98
O=C1CC2(CCCNC2)C(=O)N1Cc1ccc(Cl)cc1 (stereo not drawn)	-1.57
COCc1ncc(CN2CCC3(CCNCC3)CC2)cn1	-139
Cc1cc2cc(CNC3CCN(S(C)(=O)=O)CC3)oc2cc1C	-0.779
CN(CC(F)F)C(=O)c1cn(-c2ccc(Br)cc2)cn1	1.73
OC(COCc1ccco1)CN1CCc2c(ncn2C2CC2)C1 (stereo not drawn)	-0.885
CS(=O)(=O)N1CCC(c2nnc(Cn3ccnc3)n2C2CC2)CC1	-1.24
Cc1cnn(C2CCN(Cc3ccccc3)C2)c1N (stereo not drawn)	-3.76
CCN(CC)CCn1ccnc1-c1[nH]cnc1C	-8.88
O=c1[nH]c(NCCO)nc2c1C1(CCCCC1)Cc1ccccc1-2	7.11
Cc1nnc(SCCNC(=O)c2cc(S(N)(=O)=O)ccc2F)s1	-1.4
Cc1cnc2n(c1=O)C(CC(=O)NCc1cccs1)CS2 (stereo not drawn)	4.68
CCOc1ncccc1C(=O)N1CCCC(c2nncn2C)C1 (stereo not drawn)	-8.47
COCCC(C)NS(=O)(=O)c1ccc(C)c(N(C)C)c1 (stereo not drawn)	-0.2
CCO[C@H]1CO[C@@]2(CCCN(Cc3nc(C)cs3)C2)C1	-9.75
O=C(CC1[C@H]2CN(C(=O)Cc3ccccn3)C[C@@H]12)Nc1cccnc1 (stereo partly drawn)	10.1
Cc1ccc(N2CCC(c3cc(Cc4ccccc4)n[nH]3)CC2)nn1	3.53
CC(=O)N1CCCN(c2nccc(-c3cn(C)nc3C)n2)CC1	22.3
NC(=O)C1CCN(CCc2ccc(NCc3ccsc3)cc2)CC1	0.867
Cc1ocnc1C(=O)N(Cc1cccnc1)C[C@@H]1CCC(=O)N1	8.83
CC(C)C(=O)N1CCC2(CC1)NC(=O)c1ccccc12	-0.787
COCCSc1ccc(C(C)NC(=O)Nc2cn[nH]c2)cc1 (stereo not drawn)	8.88
Cc1ccccc1N1CCCN(C(=O)CCCS(N)(=O)=O)CC1	-16
Cc1csc(CN2CC[C@H]3C[C@@H](c4noc(C)n4)O[C@@H]3C2)n1	-1.2
Fc1ccccc1CN1CCC(c2n[nH]c(C3CC3)n2)CC1	6.21
CN(Cc1nnc(C2CC2)n1C)C1CCN(CCc2cccs2)C1 (stereo not drawn)	-8.71
Cc1nn(C)cc1NC(=O)CN1CCN(C2CCCC2)C(=O)C1	6.89
CC(C)Cc1cc(C(=O)O)nc2[nH]c(=O)[nH]c(=O)c12	-0.508
O=C(O)CC(CC(=O)NCCc1ccsc1)c1cccs1 (stereo not drawn)	-10.9
O=C(CCn1c(C(F)F)cc2cccnc21)NC1CCCC1	-40.5
Cc1cc(CN(C)C(=O)c2ccnc(N(C)C)c2)no1	5.46
O=C(CCc1ccc(Cl)s1)N1CCC(N2CCNC2=O)CC1	2.6
